Below: a set of entries, each annotated with reported hemolysis at 24 h, 5 x P. falciparum 3D7-IC50.
- ASSAY DETAILS: in vitro
- PROTOCOL CONDITIONS: human, uninfected RBCs (red blood cells), 1% hematocrit
Structures can show the parent of a compound that is named as a salt.
Write the number in % without appending the unit.

// below: answered compounds
COMPOUND	DATA VALUE
COc1ccc(S(=O)(=O)N(CCO)c2ccccc2CN(C)C/C=C/c2ccc(Cl)cc2)cc1 [KN-93 Phosphate]	-4
Nc1nc(N)c2nc(-c3cccc(O)c3)c(-c3cccc(O)c3)nc2n1 [TG-100-115]	-1
CC(=O)Nc1cccc(-n2c(=O)n(C3CC3)c(=O)c3c(Nc4ccc(I)cc4F)n(C)c(=O)c(C)c32)c1 [Trametinib]	-1
CN(C)C[C@@H]1CCn2cc(c3ccccc32)C2=C(C(=O)NC2=O)c2cn(c3ccccc23)CCO1 [Ruboxistaurin]	-1

In plain terms, CCCC[C@@H](C=O)NC(=O)[C@H](CC(C)C)NC(=O)OCc1ccccc1 [Calpeptin] has a documented hemolysis at 24 h, 5 x P. falciparum 3D7-IC50 of 0

In plain terms, CN(C)CCOc1ccc(-c2nc(-c3ccncc3)c(-c3ccc4c(c3)CC/C4=N\O)[nH]2)cc1 [SB590885] has a documented hemolysis at 24 h, 5 x P. falciparum 3D7-IC50 of -4

In plain terms, Clc1ccc(C(c2ccc(Cl)cc2)n2cc[n+](CC(OCc3ccc(Cl)cc3Cl)c3ccc(Cl)cc3Cl)c2)cc1 (stereo not shown) [Calmidazolium] has a documented hemolysis at 24 h, 5 x P. falciparum 3D7-IC50 of -6

In plain terms, Cc1ccc(NC(=O)c2ccc(CN3CC[C@H](N(C)C)C3)c(C(F)(F)F)c2)cc1Nc1nccc(-c2cncnc2)n1 [Bafetinib] has a documented hemolysis at 24 h, 5 x P. falciparum 3D7-IC50 of 1

In plain terms, COc1ccc2c(c1)CCC1C2CCC2(C)C(NCCCCCCN3C(=O)C=CC3=O)CCC12 (stereo not shown) [U-73122] has a documented hemolysis at 24 h, 5 x P. falciparum 3D7-IC50 of -3

In plain terms, COc1ccc2c(c1)c(C1=C(c3c[nH]c4ccccc34)C(=O)NC1=O)cn2CCCN(C)C [Go6983] has a documented hemolysis at 24 h, 5 x P. falciparum 3D7-IC50 of -7

In plain terms, Clc1cccc(Cl)c1CSc1nnc(-c2cnccn2)s1 [Yoda1] has a documented hemolysis at 24 h, 5 x P. falciparum 3D7-IC50 of 7

In plain terms, Oc1ccc2ccccc2c1SSc1c(O)ccc2ccccc12 [IPA-3] has a documented hemolysis at 24 h, 5 x P. falciparum 3D7-IC50 of -14

In plain terms, Cc1ccc(NC(=O)c2ccc(CN3CCN(C)CC3)cc2)cc1Nc1nccc(-c2cccnc2)n1 [Imatinib mesylate] has a documented hemolysis at 24 h, 5 x P. falciparum 3D7-IC50 of -2

---

- ASSAY DETAILS: in vitro
- PROTOCOL CONDITIONS: human, uninfected RBCs (red blood cells), 1% hematocrit
Structures can show the parent of a compound that is named as a salt.
ENDPOINT LABEL: hemolysis at 72 h, 5 x P. falciparum 3D7-IC50 (%)
Write the number in % without appending the unit.

// below: answered molecules
MOLECULE	MEASUREMENT UNIT	DATA VALUE
Cc1ccc(NC(=O)c2ccc(CN3CCN(C)CC3)cc2)cc1Nc1nccc(-c2cccnc2)n1 [Imatinib mesylate]	%	7
CC(=O)Nc1cccc(-n2c(=O)n(C3CC3)c(=O)c3c(Nc4ccc(I)cc4F)n(C)c(=O)c(C)c32)c1	%	15
COc1ccc(S(=O)(=O)N(CCO)c2ccccc2CN(C)C/C=C/c2ccc(Cl)cc2)cc1 [KN-93 Phosphate]	%	16

In plain terms, CCCCCCCCc1ccc(CCC(N)(CO)CO)cc1 has a documented hemolysis at 72 h, 5 x P. falciparum 3D7-IC50 of 25
